System: PPARg:RXRa 270nM:90nM, anti-RXR (NR concentration 270 nM, RXRa partner concentration 90 nM)
method-notes: PBM binding z-score (relative to random genomic background probes); higher = stronger binding; sequences stand for … in GC…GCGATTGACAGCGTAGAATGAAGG
# Lookup of reported PBM binding z-score keyed by entry

{"record-sequence": "CGTCAAAGTTCACCTAAGGTAACGTAAAGCACGC", "PBM binding z-score": 5.75}
{"record-sequence": "CGTCGGAGGACAGAAGGTCAGAGCTGTCCGCTTT", "PBM binding z-score": 1.07}
{"record-sequence": "ATATGTAGGTTAGGGTCGTTCAGAAAGTAGGGAA", "PBM binding z-score": 4.99}
{"record-sequence": "CGTCCAAGGTCAGCAGGTCACTGAAAGCGACGTG", "PBM binding z-score": 5.5}
{"record-sequence": "CCCACTGGGCCATTCAGAGGTCATTGATCATATG", "PBM binding z-score": 3.28}
{"record-sequence": "GCTGCTAGGTCAGGTTGGTCAGCTAACGGGTACG", "PBM binding z-score": 0.622}
{"record-sequence": "TGAATGACGTTAAAGATCAGGGAACGTGGCGTCG", "PBM binding z-score": 1.26}
{"record-sequence": "GATACAGGGTCAGCTAGAGGTCAGAGTATGGAAA", "PBM binding z-score": 5.22}
{"record-sequence": "CGAACTAGGTCACCAGGTCAGTGAAGAGGTTGGA", "PBM binding z-score": 7.31}
{"record-sequence": "TCGAGTAGGTTACGGGGGGATTCAGGGATGAAGA", "PBM binding z-score": 4.06}
{"record-sequence": "CGTCCAAGGTCAGAGAGGTCACTGAATGCCGAGT", "PBM binding z-score": 5.36}
{"record-sequence": "TCTTATAGATCAATAGAGGTTAAGAAAGTGCGCT", "PBM binding z-score": 2.02}
{"record-sequence": "CCTAGATGGTCAGGAGGTCACACACCGGATATGA", "PBM binding z-score": 3.58}
{"record-sequence": "CCTTACGGGTCACTCAAGGTTATAGCATCGGAGT", "PBM binding z-score": 4.48}
{"record-sequence": "ACTAGGAGGACAAAGGTCAGAGCTACGCCAGTGA", "PBM binding z-score": 8.36}
{"record-sequence": "CCAACTAGGTCACCAGGACAGTGAAGAGGTTGGA", "PBM binding z-score": 6.53}
{"record-sequence": "CGAACTAGGGCAAAGGACAGTGAAAGGCGACGTA", "PBM binding z-score": 7.51}

----------
Tested on: PPARg DBDmut:RXRa IVT, anti-PPARg (DBD mutation: PPARg1 K132A/R137A, NR concentration 270 nM, RXRa partner concentration 90 nM)
method-notes: PBM binding z-score (relative to random genomic background probes); higher = stronger binding; sequences stand for … in GC…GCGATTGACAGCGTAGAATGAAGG
# Lookup of reported PBM binding z-score keyed by entry

{"record-sequence": "ATCGAAAGGTGGACGAGGTGAGTATACACCGTTT", "PBM binding z-score": 0.496}
{"record-sequence": "CTCGAAAGGTCGGTTGAGGTGACTATACGGATAA", "PBM binding z-score": 0.145}
{"record-sequence": "CCTACTGGGCCAAAGGCCATTGATTCCAATGCTC", "PBM binding z-score": -1.16}
{"record-sequence": "TAGCCTAGGACATGCGGGCCAGTATAGTGTCGGC", "PBM binding z-score": -1.11}
{"record-sequence": "ATATGTGGGTTATCGGGTCATTCAGTTTGCGCAT", "PBM binding z-score": 3.15}
{"record-sequence": "CAAACTAGGTCACAGAGGACAAAGTCCGTGCGTA", "PBM binding z-score": 7.7}
{"record-sequence": "AGATTGAGGTTACCAAAGATCAGGGAAACGCTTG", "PBM binding z-score": 0.865}
{"record-sequence": "AGAATGAGGTTACCAGAGATCAGGGAAACGCTTG", "PBM binding z-score": 1.02}
{"record-sequence": "CAAACTAGGTCACAGGGGTCAAAGTCCGTGCGTA", "PBM binding z-score": 4.98}
